experiment: Measurement of LogD (CHI logD by HPLC); assay type: physicochemical; conditions: CHI log D, 50 mM ammonium acetate pH 7.4 / acetonitrile gradient, C-18 column, 25° C.
ENDPOINT_NAME: chromatographic logD
Form rule: numeric answer, no unit written next to it.

Reference set (3 entries):
structure_smiles=COc1cc2c(OC)cc1NC(=O)CSC[C@@H](C(=O)N[C@@H](CCC(=O)O)C(=O)N[C@@H](CC(C)C)C(=O)N[C@H](C(N)=O)C(C)C)NC(=O)[C@H](Cc1c[nH]cn1)NC(=O)[C@H](CC(C)C)NC(=O)[C@H](C)NC(=O)[C@H](C)NC(=O)[C@H](Cc1c[nH]c3ccccc13)NC(=O)[C@H](CCC(=O)O)NC(=O)[C@@H](NC(=O)[C@H](CCCNC(=N)N)NC(=O)[C@H](Cc1c[nH]cn1)NC(=O)[C@@H](NC(=O)[C@H](C)NC(=O)[C@@H]1CCCN1C(=O)[C@H](CC(=O)O)NC(=O)[C@H](C)N)[C@@H](C)O)CSCC(=O)N2 meas_value=0.63
structure_smiles=CC(C)C[C@@H]1NC(=O)[C@H](C)NC(=O)[C@H](C)NC(=O)[C@H](Cc2c[nH]c3ccccc23)NC(=O)[C@H](CCC(=O)O)NC(=O)[C@@H](NC(=O)[C@H](CCCNC(=N)N)NC(=O)[C@H](Cc2c[nH]cn2)NC(=O)[C@@H](NC(=O)[C@H](C)NC(=O)[C@@H]2CCCN2C(=O)[C@H](CC(=O)O)NC(=O)[C@H](C)N)[C@@H](C)O)CSCC(=O)Nc2cc(Cl)c(cc2Cl)NC(=O)CSC[C@@H](C(=O)N[C@@H](CCC(=O)O)C(=O)N[C@@H](CC(C)C)C(=O)N[C@H](C(N)=O)C(C)C)NC(=O)[C@H](Cc2c[nH]cn2)NC1=O meas_value=0.68
structure_smiles=CC(C)C[C@@H]1NC(=O)[C@H](C)NC(=O)[C@H](C)NC(=O)[C@H](Cc2c[nH]c3ccccc23)NC(=O)[C@H](CCC(=O)O)NC(=O)[C@@H](NC(=O)[C@H](CCCNC(=N)N)NC(=O)[C@H](Cc2c[nH]cn2)NC(=O)[C@@H](NC(=O)[C@H](C)NC(=O)[C@@H]2CCCN2C(=O)[C@H](CC(=O)O)NC(=O)[C@H](C)N)[C@@H](C)O)CSCC(=O)Nc2ccc(cc2)NC(=O)CSC[C@@H](C(=O)N[C@@H](CCC(=O)O)C(=O)N[C@@H](CC(C)C)C(=O)N[C@H](C(N)=O)C(C)C)NC(=O)[C@H](Cc2c[nH]cn2)NC1=O meas_value=0.57

Suppose we examine the compound `CC(C)C[C@@H]1NC(=O)[C@H](C)NC(=O)[C@H](C)NC(=O)[C@H](Cc2c[nH]c3ccccc23)NC(=O)[C@H](CCC(=O)O)NC(=O)[C@@H](NC(=O)[C@H](CCCNC(=N)N)NC(=O)[C@H](Cc2c[nH]cn2)NC(=O)[C@@H](NC(=O)[C@H](C)NC(=O)[C@@H]2CCCN2C(=O)[C@H](CC(=O)O)NC(=O)[C@H](C)N)[C@@H](C)O)CSCC(=O)O[C@H]2CC[C@H](CC2)OC(=O)CSC[C@@H](C(=O)N[C@@H](CCC(=O)O)C(=O)N[C@@H](CC(C)C)C(=O)N[C@H](C(N)=O)C(C)C)NC(=O)[C@H](Cc2c[nH]cn2)NC1=O` ; what chromatographic logD value has been reported? 0.77

* * *

Molecular target: full-length β-Catenin (Homo sapiens, UniProt P35222)
Construct: Probe solution (15 nM full-length β-Catenin, 20 nM FITC labeled Axin peptide in buffer)
Sequence (P35222 1-781): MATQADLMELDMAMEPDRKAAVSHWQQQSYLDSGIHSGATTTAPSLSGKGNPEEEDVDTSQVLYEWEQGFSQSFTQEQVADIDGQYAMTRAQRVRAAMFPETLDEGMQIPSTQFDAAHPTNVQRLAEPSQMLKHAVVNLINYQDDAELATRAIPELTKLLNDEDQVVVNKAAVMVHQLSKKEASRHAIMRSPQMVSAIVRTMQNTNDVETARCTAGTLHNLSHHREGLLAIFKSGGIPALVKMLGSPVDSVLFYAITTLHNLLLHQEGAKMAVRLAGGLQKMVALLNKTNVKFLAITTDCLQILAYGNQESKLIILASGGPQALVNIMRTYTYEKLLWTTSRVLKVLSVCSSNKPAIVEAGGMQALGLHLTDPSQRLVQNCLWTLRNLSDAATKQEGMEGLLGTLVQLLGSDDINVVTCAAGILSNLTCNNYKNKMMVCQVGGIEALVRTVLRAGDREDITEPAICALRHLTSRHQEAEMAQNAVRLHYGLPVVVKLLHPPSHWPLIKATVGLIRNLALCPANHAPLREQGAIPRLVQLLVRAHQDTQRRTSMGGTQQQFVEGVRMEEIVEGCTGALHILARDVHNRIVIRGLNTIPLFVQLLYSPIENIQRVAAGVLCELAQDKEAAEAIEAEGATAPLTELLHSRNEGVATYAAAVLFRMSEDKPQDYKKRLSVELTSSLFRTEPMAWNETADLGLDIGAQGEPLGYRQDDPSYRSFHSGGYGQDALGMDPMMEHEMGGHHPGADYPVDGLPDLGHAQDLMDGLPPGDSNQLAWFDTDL
Test: Competition fluorescence polarization assay for binding to beta-catenin (displacement of FITC labeled Axin peptide probe)
Conditions: 15 nM full-length β-Catenin, 20 nM FITC labeled Axin peptide probe, 3-fold serial dilution from 5 μM; read-out: bCat EC50
pEC50: −log10 of the molar value.
ENDPOINT_NAME: pEC50

Suppose we examine the compound `CC(C)C[C@@H]1NC(=O)[C@H](C)NC(=O)[C@H](C)NC(=O)[C@H](Cc2c[nH]c3ccccc23)NC(=O)[C@H](CCC(=O)O)NC(=O)[C@@H](NC(=O)[C@H](CCCNC(=N)N)NC(=O)[C@H](Cc2c[nH]cn2)NC(=O)[C@@H](NC(=O)[C@H](C)NC(=O)[C@@H]2CCCN2C(=O)[C@H](CC(=O)O)NC(=O)[C@H](C)N)[C@@H](C)O)CSCC(=O)N(C)c2ccc(cc2)N(C)C(=O)CSC[C@@H](C(=O)N[C@@H](CCC(=O)O)C(=O)N[C@@H](CC(C)C)C(=O)N[C@H](C(N)=O)C(C)C)NC(=O)[C@H](Cc2c[nH]cn2)NC1=O` ; what pEC50 value has been reported? < 5.00

* * *

Reported pEC50 by item:
target: full-length β-Catenin (Homo sapiens); construct: Probe solution (15 nM full-length β-Catenin, 20 nM FITC labeled Axin peptide in buffer); assay: Competition fluorescence polarization assay for binding to beta-catenin (displacement of FITC labeled Axin peptide probe); conditions: 15 nM full-length β-Catenin, 20 nM FITC labeled Axin peptide probe, 3-fold serial dilution from 5 μM; read-out: bCat EC50
pEC50: −log10 of the molar value.

Reference set (4 entries):
structure_smiles=CC(C)C[C@@H]1NC(=O)[C@H](C)NC(=O)[C@H](C)NC(=O)[C@H](Cc2c[nH]c3ccccc23)NC(=O)[C@H](CCC(=O)O)NC(=O)[C@@H](NC(=O)[C@H](CCCNC(=N)N)NC(=O)[C@H](Cc2c[nH]cn2)NC(=O)[C@@H](NC(=O)[C@H](C)NC(=O)[C@@H]2CCCN2C(=O)[C@H](CC(=O)O)NC(=O)[C@H](C)N)[C@@H](C)O)CSCC(=O)O[C@H]2CC[C@H](CC2)OC(=O)CSC[C@@H](C(=O)N[C@@H](CCC(=O)O)C(=O)N[C@@H](CC(C)C)C(=O)N[C@H](C(N)=O)C(C)C)NC(=O)[C@H](Cc2c[nH]cn2)NC1=O meas_value="< 5.00"
structure_smiles=CC(C)C[C@@H]1NC(=O)[C@H](C)NC(=O)[C@H](C)NC(=O)[C@H](Cc2c[nH]c3ccccc23)NC(=O)[C@H](CCC(=O)O)NC(=O)[C@@H](NC(=O)[C@H](CCCNC(=N)N)NC(=O)[C@H](Cc2c[nH]cn2)NC(=O)[C@@H](NC(=O)[C@H](C)NC(=O)[C@@H]2CCCN2C(=O)[C@H](CC(=O)O)NC(=O)[C@H](C)N)[C@@H](C)O)CSCC(=O)O[C@@H]2CC[C@@H](C2)OC(=O)CSC[C@@H](C(=O)N[C@@H](CCC(=O)O)C(=O)N[C@@H](CC(C)C)C(=O)N[C@H](C(N)=O)C(C)C)NC(=O)[C@H](Cc2c[nH]cn2)NC1=O meas_value="< 5.00"
structure_smiles=CC(C)C[C@@H]1NC(=O)[C@H](C)NC(=O)[C@H](C)NC(=O)[C@H](Cc2c[nH]c3ccccc23)NC(=O)[C@H](CCC(=O)O)NC(=O)[C@@H](NC(=O)[C@H](CCCNC(=N)N)NC(=O)[C@H](Cc2c[nH]cn2)NC(=O)[C@@H](NC(=O)[C@H](C)NC(=O)[C@@H]2CCCN2C(=O)[C@H](CC(=O)O)NC(=O)[C@H](C)N)[C@@H](C)O)CSCC(=O)Nc2ccccc2NC(=O)CSC[C@@H](C(=O)N[C@@H](CCC(=O)O)C(=O)N[C@@H](CC(C)C)C(=O)N[C@H](C(N)=O)C(C)C)NC(=O)[C@H](Cc2c[nH]cn2)NC1=O meas_value="< 5.00"
structure_smiles=CC(C)C[C@@H]1NC(=O)[C@H](C)NC(=O)[C@H](C)NC(=O)[C@H](Cc2c[nH]c3ccccc23)NC(=O)[C@H](CCC(=O)O)NC(=O)[C@@H](NC(=O)[C@H](CCCNC(=N)N)NC(=O)[C@H](Cc2c[nH]cn2)NC(=O)[C@@H](NC(=O)[C@H](C)NC(=O)[C@@H]2CCCN2C(=O)[C@H](CC(=O)O)NC(=O)[C@H](C)N)[C@@H](C)O)CSCC(=O)Nc2cc(F)c(cc2F)NC(=O)CSC[C@@H](C(=O)N[C@@H](CCC(=O)O)C(=O)N[C@@H](CC(C)C)C(=O)N[C@H](C(N)=O)C(C)C)NC(=O)[C@H](Cc2c[nH]cn2)NC1=O meas_value=5.29

With those in mind, consider the next molecule.
Suppose we examine the molecule `CC(C)C[C@@H]1NC(=O)[C@H](C)NC(=O)[C@H](C)NC(=O)[C@H](Cc2c[nH]c3ccccc23)NC(=O)[C@H](CCC(=O)O)NC(=O)[C@@H](NC(=O)[C@H](CCCNC(=N)N)NC(=O)[C@H](Cc2c[nH]cn2)NC(=O)[C@@H](NC(=O)[C@H](C)NC(=O)[C@@H]2CCCN2C(=O)[C@H](CC(=O)O)NC(=O)[C@H](C)N)[C@@H](C)O)CSCC(=O)O[C@@H]2C=C[C@@H](C2)OC(=O)CSC[C@@H](C(=O)N[C@@H](CCC(=O)O)C(=O)N[C@@H](CC(C)C)C(=O)N[C@H](C(N)=O)C(C)C)NC(=O)[C@H](Cc2c[nH]cn2)NC1=O` ; what pEC50 value has been reported? < 5.00
